Just for reference, patent US10995101B2 is where these values come from.

- subject_of_test: UniProt:P29274
- Sequence (P29274 whole entry): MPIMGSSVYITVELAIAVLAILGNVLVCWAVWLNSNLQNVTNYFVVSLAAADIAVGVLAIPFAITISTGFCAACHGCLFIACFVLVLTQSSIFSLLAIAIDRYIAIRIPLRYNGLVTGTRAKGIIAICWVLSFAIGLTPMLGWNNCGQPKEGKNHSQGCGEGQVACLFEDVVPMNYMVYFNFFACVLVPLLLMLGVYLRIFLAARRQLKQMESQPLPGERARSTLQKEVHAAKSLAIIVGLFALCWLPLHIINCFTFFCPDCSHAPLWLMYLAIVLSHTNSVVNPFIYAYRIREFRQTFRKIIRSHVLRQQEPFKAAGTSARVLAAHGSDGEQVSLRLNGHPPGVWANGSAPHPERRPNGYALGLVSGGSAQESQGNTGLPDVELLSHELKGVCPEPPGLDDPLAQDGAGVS
- assay_explanation: Inhibition of cAMP production in HEK cells
- Format: cell-based
- test_settings: IC50 (nM) (3 nM NECA as agonist, 0.1% BSA), HEK-293 cells with A2A receptor, 3 nM NECA as agonist, 0.1% BSA
- Procedure: When the A2A receptor is activated, is induces the production of cAMP. HEK-293 cells with a stable transfection of A2A receptor were bought from PerkinElmer® (# ES-011-C). […] Fresh media without the selection marker was added on the day immediately before the experiment to stop selection pressure. […] Compounds of the present invention were diluted 100× in either of the buffers depending on the assay performed. […] The TR-FRET signal was measured after 1 hour using a Spectramax Paradigm (Molecular Devices).
Each record's class is read off its IC50 using these ranges: lower segment: < 0.4 nM; middle segment: ≥ 0.4 nM and < 0.8 nM; upper segment: ≥ 0.8 nM

| compound | label |
| --- | --- |
| Nc1nc2c(sc(=O)n2CCN2CCN(c3ccc(C(=O)N4CC[S+]([O-])CC4)cc3F)CC2)c2nc(-c3ccco3)nn12 [Compound 125] | upper segment |
| Nc1nc2c(sc(=O)n2CCN2CCN(c3cc4c(cc3F)NC(=O)C4)CC2)c2nc(-c3ccco3)nn12 [Compound 79] | lower segment |

Task item: Any idea which band CNCCN(C)C(=O)COc1ccc(N2CCN(CCn3c(=O)sc4c3nc(N)n3nc(-c5ccco5)nc43)CC2)c(F)c1 [Compound 58] is in?
Reply: lower segment

Task item: Any idea which band NC(=O)c1ccc(N2CCN(CCn3c(=O)sc4c3nc(N)n3nc(-c5ccco5)nc43)CC2)cc1 [Compound 14] is in?
Reply: middle segment

Task item: Any idea which band Nc1nc2c(sc(=O)n2CCN2CCN(c3ccc(OCCN4CCOCC4)cc3)CC2)c2nc(-c3ccco3)nn12 [Compound 16] is in?
Reply: upper segment

Task item: Any idea which band Nc1nc2c(sc(=O)n2CCN2CCN(c3cc(C(=O)NCC4COCCN4)c(F)cc3F)CC2)c2nc(-c3ccco3)nn12 (stereo not shown) [Compound 98] is in?
Reply: lower segment

Task item: Any idea which band Nc1nc2c(sc(=O)n2CCN2CCN(c3cc(C(=O)N4CC[S+]([O-])CC4)c(F)cc3F)CC2)c2nc(-c3ccco3)nn12 [Compound 117] is in?
Reply: upper segment
